# method: Pharmacokinetic animal test on Sprague Dawley (SD) rat, ursolic acid concentration in blood plasma
# Type: in vivo
# cond: male, intravenous administration, dose 0.5 (mg/kg per Table 1), SD rats
endpoint_name: Cmax (ng/mL)
Numbers only; they are read as ng/mL.

The compound identified as C[C@H]1[C@H](C)CC[C@]2(C(=O)O)CC[C@]3(C)C(=CC[C@@H]4[C@@]5(C)CC[C@H](O)C(C)(C)[C@@H]5CC[C@]43C)[C@H]12 [Ursolic Acid, 3β-hydroxy-urs-12-en-28-oic acid] registered its Cmax at 378

###

# method: Pharmacokinetic animal test on Sprague Dawley (SD) rat, ursolic acid concentration in blood plasma
# Type: in vivo
# cond: male, intravenous administration, dose 0.5 (mg/kg per Table 1), SD rats
endpoint_name: AUC(0-t) (ng·h/mL)
Please state the figure in ng·h/mL; there is no need to write the unit.

# molecule C[C@H]1[C@H](C)CC[C@]2(C(=O)O)CC[C@]3(C)C(=CC[C@@H]4[C@@]5(C)CC[C@H](O)C(C)(C)[C@@H]5CC[C@]43C)[C@H]12 [Ursolic Acid, 3β-hydroxy-urs-12-en-28-oic acid] ; its AUC(0-t) = 114

Entry source: patent US9120839B2
